- method: Inhibition of rabbit liver carboxylesterase expressed in sf21 cells
- Format: cell-based, Oryctolagus cuniculus
measurement.name: log10 of Ki (log10 of the value in µM)

INSERT INTO results (test_smiles, measurement_name, quantitative_readout) VALUES
  ('CCCC(=O)N1C(=O)C(=O)c2ccccc21', 'log10 of Ki', 1.44),
  ('O=C1C(=O)N(Cl)c2ccccc21', 'log10 of Ki', 0.68),
  ('O=C1Nc2ccc(Cl)c(Cl)c2C1=O', 'log10 of Ki', -0.39),
  ('Cc1ccc(Cl)c2c1NC(=O)C2=O', 'log10 of Ki', 1.22),
  ('O=C1Nc2cc(Cl)c(Cl)cc2C1=O', 'log10 of Ki', -0.31),
  ('O=C1Nc2cc(Cl)cc(Cl)c2C1=O', 'log10 of Ki', -0.28),
  ('O=C1Nc2ccc(Cl)cc2C1=O', 'log10 of Ki', 0.64);

Just for reference, ChEMBL document CHEMBL1144473 is where these values come from.
